Data credit: patent US6448006B1

Overview of reported MIC across a group of compounds:
- Test system: E. coli strains (AG100, Pine-Sol/pine oil mutants, Mar mutants)
- PROTOCOL_DETAILS: Susceptibility by gradient plates (MIC)
- Type: cell-based
- PARTICULARS: Escherichia coli, read-out: Susceptibility by gradient plates (MIC), strain AP1, mutant of AG100 selected by pine oil on disc
- Protocol: […] Antibiotic susceptibility was measured at 30° C. using antibiotic susceptibility discs (Carolina Biological), gradient plates with the drug in the top agar (Curiale and Levy, 1982) or agar dilution plates (concentration steps of 1.5 fold; inocula of 10^5 cells/5 μl spot). […]

{"CHEMICAL_SMILES": "CC1(C)S[C@@H]2[C@H](NC(=O)[C@H](N)c3ccccc3)C(=O)N2[C@H]1C(=O)O", "MIC, µg/mL": 3}
{"CHEMICAL_SMILES": "CCn1cc(C(=O)O)c(=O)c2ccc(C)nc21", "MIC, µg/mL": 9.7}
{"CHEMICAL_SMILES": "CN(C)[C@@H]1C(O)=C(C(N)=O)C(=O)[C@@]2(O)C(O)=C3C(=O)c4c(O)cccc4[C@@](C)(O)[C@H]3C[C@@H]12", "MIC, µg/mL": 2.4}
{"CHEMICAL_SMILES": "O=C(N[C@H](CO)[C@H](O)c1ccc([N+](=O)[O-])cc1)C(Cl)Cl", "MIC, µg/mL": 7.8}
